# Test system: MDCK cells
# Assay Setup: read-out: TC50; Example 10; MDCK cells
The entries below come with measured CC50 values attached.

{"Compound": "CCOC(=O)C1=C[C@@H](OC(CC)CC)[C@H](NC(C)=O)[C@@H](N)C1", "Relation Symbol": ">", "CC50 [µM]": 200}
{"Compound": "C=C[C@]1(C)C[C@@H](OC(=O)CS[C@@H]2CC[C@@H](N)C[C@H]2O)[C@]2(C)C(C)CC[C@]3(CCC(=O)[C@H]32)[C@@H](C)[C@@H]1O (some centres unmarked)", "Relation Symbol": "=", "CC50 [µM]": 23.8}

---

# Tested on: MRC-5 cells
# Assay Setup: human, 6 days

{"Smiles Structure": "C=C[C@]1(C)C[C@@H](OC(=O)CSCCN(CC)CC)[C@]2(C)[C@H](C)CC[C@]3(CCC(=O)[C@H]32)[C@@H](C)[C@@H]1O", "CC50 (µM)": 62.9}

---

# Tested on: HeLa cells
# Assay Method Text: Cell viability, HeLa cells, XTT
# Assay Setup: read-out: TC50, Example 6

{"Compound": "C=C[C@]1(C)C[C@@H](OC(=O)CS[C@@H]2CC[C@@H](N)C[C@H]2O)[C@]2(C)C(C)CC[C@]3(CCC(=O)[C@H]32)[C@@H](C)[C@@H]1O (stereo partly shown) [Lefamulin]", "Target Or Test System": "HeLa cells", "Unit Annotation": "µM", "CC50": 72.7}

---

# Tested on: Huh7 cells
# Assay Method Text: Cell viability, Huh7 cells, XTT
# Assay Setup: read-out: TC50, Example 7, Dengue experiment

{"Molecule": "C=C[C@]1(C)C[C@@H](OC(=O)CS[C@@H]2CC[C@@H](N)C[C@H]2O)[C@]2(C)C(C)CC[C@]3(CCC(=O)[C@H]32)[C@@H](C)[C@@H]1O (stereo partly shown)", "CC50, µM": 23.3}

---

# System: MRC-5 cells
# Assay Setup: human
Endpoint Label: CC50

{"Compound": "CCC(CC)COC(=O)[C@H](C)N[P@](=O)(OC[C@H]1O[C@@](C#N)(c2ccc3c(N)ncnn23)[C@H](O)[C@@H]1O)Oc1ccccc1 [Remdesivir]", "Observed Result": "> 5 µM"}

---

Recorded CC50 for the following compounds
# System: Huh7 cells
# Assay Method Text: Cell viability, Huh7 cells, XTT
# Assay Setup: read-out: TC50, Example 8, Zika experiment
Endpoint Label: CC50 (µM)

{"Compound": "C=C[C@]1(C)C[C@@H](OC(=O)CS[C@@H]2CC[C@@H](N)C[C@H]2O)[C@]2(C)C(C)CC[C@]3(CCC(=O)[C@H]32)[C@@H](C)[C@@H]1O (some centres unmarked) [Lefamulin]", "Relation Symbol": "=", "Observed Result": 23.4}
{"Compound": "CC(C)OC(=O)[C@H](C)N[P@](=O)(OC[C@H]1O[C@@H](n2ccc(=O)[nH]c2=O)[C@](C)(F)[C@@H]1O)Oc1ccccc1 [Sofosbuvir]", "Relation Symbol": ">", "Observed Result": 10}
